# Test system: MCF10A
# protocol summary: percent viability (nuclei count relative to siNT); higher = more viable cells
# experimental parameters: 20 nM; 72 h
I'd be grateful if you could share measured percent viability for these entries.

// query Enter reported percent viability observed with MCF10A for AAAAGUAACUGCGGUUUUUGA [hsa-miR-548ak]
// result 89.9%

// query Enter reported percent viability observed with MCF10A for UCAGGGAGUCAGGGGAGGGC [hsa-miR-4270]
// result 9.71%

// query Enter reported percent viability observed with MCF10A for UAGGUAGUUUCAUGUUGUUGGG [hsa-miR-196a-5p]
// result 33.5%

// query Enter reported percent viability observed with MCF10A for CUCGGGCGGAGGUGGUUGAGUG [hsa-miR-4750-5p]
// result 40.2%

// query Enter reported percent viability observed with MCF10A for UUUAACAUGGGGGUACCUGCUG [hsa-miR-302c-5p]
// result 121%

// query Enter reported percent viability observed with MCF10A for UUCAAGUAAUCCAGGAUAGGCU [hsa-miR-26a-5p]
// result 103%

// query Enter reported percent viability observed with MCF10A for UCAUAUUGCUUCUUUCU [hsa-miR-1279]
// result 187%

// query Enter reported percent viability observed with MCF10A for CCUGCAACUUUGCCUGAUCAGA [hsa-miR-4772-3p]
// result 47.3%

// query Enter reported percent viability observed with MCF10A for AUAAGACGAACAAAAGGUUUGU [hsa-miR-208b]
// result 63%

// query Enter reported percent viability observed with MCF10A for UAACAAACACCUGUAAAACAGC [hsa-miR-5688]
// result 101%

// query Enter reported percent viability observed with MCF10A for UGCAAGACGGAUACUGUCAUCU [hsa-miR-4696]
// result 92.5%

// query Enter reported percent viability observed with MCF10A for CAAGUCUUAUUUGAGCACCUGUU [hsa-miR-1264]
// result 70%
